Assay: binders of probe aFST on microarray, primary screen, stem cell growth factor project, biochemical, small-molecule microarray, fluorescence 635/667 (AID 1086);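 further: score merges 667 nm fluorescence with signal-to-noise of each printed compound spot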
Conditions: higher = more signal
Would you mind telling me the reported composite z-score of each entry?
Reply briefly: the number, and no unit.

composite z-score reading for CC(C)C[C@H](NC(=O)CCC1CC(OC(=O)NCc2cccc3ccccc23)CC2(CCCC(COC(=O)NCc3ccccc3)O2)O1)C(=O)NCC(c1ccccc1)c1ccccc1 (stereo not given in full) : 0.289

composite z-score reading for `COc1ccc(O[C@H]2C=C[C@@H](c3ccccc3)O[C@@H]2CON=C(C)CCN2CCc3nc(-c4ccccc4)c(-c4ccccc4)cc3C2)cc1` : 0.371

composite z-score reading for `CC(C)CON=C1C[C@@H](O)[C@@H](O)[C@@H]2[C@@H]3C(=O)N(c4cccc(Oc5ccccc5)c4)C(=O)[C@@H]3CC[C@@H]12` : -0.129

composite z-score reading for `CO[C@@H]1C=CCC(=O)N[C@@H](C)C(=O)OC[C@@H](OC)[C@H](C)CCCC(=O)OC[C@H]1C` : -0.331

composite z-score reading for CCOC(=O)[C@H](CC(C)C)NC(=O)CCC1CC(OC(=O)NCCc2ccc(F)cc2)CC2(CCCC(COC(=O)NCCc3ccccc3OC)O2)O1 (stereo not given in full) : 0.216

composite z-score reading for `C[C@H]1COC(=O)[C@@H]2CCCN2C(=O)[C@@H](C)COC(=O)[C@H](Cc2ccccc2)NC1=O` : 0.761

composite z-score reading for O=C1CCCC=C1C(O)CCOC(c1ccccc1)(c1ccccc1)c1ccccc1 (stereo not given) : -0.405

composite z-score reading for `COC(=O)[C@@H]1CC[C@H](C)[C@@H](c2ccc(C)cc2)N1C(=O)c1ccc(C=NOCC[C@@H]2C=C[C@H](OC(C)=O)[C@@H](COC(C)=O)O2)cc1` : 0.0627

composite z-score reading for `CC(C)CON=C1C[C@@H](O)[C@@H](O)[C@@H]2[C@@H]3C(=O)N(C4CCCCC4)C(=O)[C@@H]3CC[C@@H]12` : -0.0424

composite z-score reading for `CO[C@H]1COC(=O)CCC[C@@H](C)[C@H](OC)COC(=O)[C@@H](C)NC(=O)CC=C[C@@H]1C` : 0.0835

composite z-score reading for `CC(CCN1CCc2nc(-c3ccccc3)c(-c3ccccc3)cc2C1)=NOC[C@@H](O)[C@H]1O[C@@H]2OC(C)(C)O[C@@H]2[C@H]1O` : 0.319

composite z-score reading for `C#CCCCON=C1C[C@@H](O)[C@@H](O)[C@@H]2[C@@H]3C(=O)N(c4cccc(Oc5ccccc5)c4)C(=O)[C@@H]3CC[C@H]12` : -0.464

composite z-score reading for COC(=O)[C@H](C)NC(=O)CCC1CC(OC(=O)NCc2ccc3c(c2)OCO3)CC2(CCCC(COC(=O)NCC3CCCCC3)O2)O1 (stereo not given in full) : 0.315

composite z-score reading for Cc1cc2c(nc1C)CCCCN2CC(C)ON=C[C@@H](C)[C@H](OCc1ccccc1)C(C)C (stereo not given in full) : -0.514

composite z-score reading for `O=C1[C@H]2[C@H]3[C@H](O)[C@H](O)CC(=NOCc4ccccc4)[C@@H]3CC[C@H]2C(=O)N1Cc1ccc2c(c1)OCO2` : 0.357
